Hey, just so you know, these numbers are from ChEMBL document CHEMBL3856240.

- test_system: Kappa-type opioid receptor (Homo sapiens)
- Sequence (P41145 whole entry): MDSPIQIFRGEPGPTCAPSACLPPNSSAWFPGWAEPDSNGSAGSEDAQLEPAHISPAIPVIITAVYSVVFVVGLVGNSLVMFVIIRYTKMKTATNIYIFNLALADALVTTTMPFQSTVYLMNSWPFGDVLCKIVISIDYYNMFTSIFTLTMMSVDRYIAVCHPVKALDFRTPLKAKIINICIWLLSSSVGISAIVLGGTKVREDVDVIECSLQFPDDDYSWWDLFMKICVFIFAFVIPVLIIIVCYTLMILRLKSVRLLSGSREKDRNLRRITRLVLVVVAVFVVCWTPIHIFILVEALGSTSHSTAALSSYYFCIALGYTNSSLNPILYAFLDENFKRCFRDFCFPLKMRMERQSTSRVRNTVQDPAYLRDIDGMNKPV
- test_details: Agonist activity at human kappa opioid receptor expressed in CHO cell membranes after 60 mins by [35S]GTPgammaS assay
Collected EC50 values appear next to each entry.

Before answering, review these 2 worked examples.
> print(dat)
                           smiles.input                               test.system  obs.value
1  Oc1cccc(CCN(CCc2ccccc2)CCc2ccccc2)c1  Kappa-type opioid receptor (Homo sapiens)    > 10 µM
2      Oc1ccc(CCN(CCc2ccccc2)CC2CC2)cc1  Kappa-type opioid receptor (Homo sapiens)    > 10 µM

Continue with the compound presented below.
# input Item `Oc1ccc(CCN(CCc2ccccc2)CC2CCC2)cc1` with Kappa-type opioid receptor (Homo sapiens) - EC50?
# output 0.109 µM
